Biological target: human androgen receptor (hAR) (Homo sapiens)
Construct: expressed in transfected cells; host or cells: Chinese hamster ovary cells (CHO)
Test: Transactivative androgen agonistic activity in CHO cells transfected with hAR, MMTV and luciferase
Format: cell-based
Settings: MMTV-luciferase, incubation 16 h, 37° C.
PROPERTY NAME: Androgen activity: Relative agonistic activity (%) versus 5α-dihydrotestosterone
Reply with just the number (in %).

Reference set, count: 3
| COMPOUND | REPORTED VALUE |
| --- | --- |
| CC1CC2=CC(O)CCC2C2CCC3(C)C(=CCCC3(C)O)C12 (stereo not shown) [Compound of Example 5] | 36.2 |
| CCC1CC2=CC(=O)CCC2C2CCC3(C)C(=CCCC3O)C12 (stereo not shown) [Compound of Example 2] | 30.5 |
| CC1CC2=CC(=O)CCC2C2CCC3(C)C(=CCCC3(C)O)C12 (stereo not shown) [Compound of Example 4] | 106.9 |

The measured Androgen activity: Relative agonistic activity (%) versus 5α-dihydrotestosterone associated with CC1(O)CCC=C2C3CCC4=CC(=O)CCC4C3CCC21C (stereo not shown) [Compound of Example 8] reads 157.9

---

Measured Androgen activity: Relative agonistic activity (%) versus 5α-dihydrotestosterone, listed per entry.
Molecular target: human androgen receptor (hAR) (Homo sapiens, UniProt P10275)
Construct: expressed in transfected cells; host or cells: Chinese hamster ovary cells (CHO)
Sequence (P10275 whole entry): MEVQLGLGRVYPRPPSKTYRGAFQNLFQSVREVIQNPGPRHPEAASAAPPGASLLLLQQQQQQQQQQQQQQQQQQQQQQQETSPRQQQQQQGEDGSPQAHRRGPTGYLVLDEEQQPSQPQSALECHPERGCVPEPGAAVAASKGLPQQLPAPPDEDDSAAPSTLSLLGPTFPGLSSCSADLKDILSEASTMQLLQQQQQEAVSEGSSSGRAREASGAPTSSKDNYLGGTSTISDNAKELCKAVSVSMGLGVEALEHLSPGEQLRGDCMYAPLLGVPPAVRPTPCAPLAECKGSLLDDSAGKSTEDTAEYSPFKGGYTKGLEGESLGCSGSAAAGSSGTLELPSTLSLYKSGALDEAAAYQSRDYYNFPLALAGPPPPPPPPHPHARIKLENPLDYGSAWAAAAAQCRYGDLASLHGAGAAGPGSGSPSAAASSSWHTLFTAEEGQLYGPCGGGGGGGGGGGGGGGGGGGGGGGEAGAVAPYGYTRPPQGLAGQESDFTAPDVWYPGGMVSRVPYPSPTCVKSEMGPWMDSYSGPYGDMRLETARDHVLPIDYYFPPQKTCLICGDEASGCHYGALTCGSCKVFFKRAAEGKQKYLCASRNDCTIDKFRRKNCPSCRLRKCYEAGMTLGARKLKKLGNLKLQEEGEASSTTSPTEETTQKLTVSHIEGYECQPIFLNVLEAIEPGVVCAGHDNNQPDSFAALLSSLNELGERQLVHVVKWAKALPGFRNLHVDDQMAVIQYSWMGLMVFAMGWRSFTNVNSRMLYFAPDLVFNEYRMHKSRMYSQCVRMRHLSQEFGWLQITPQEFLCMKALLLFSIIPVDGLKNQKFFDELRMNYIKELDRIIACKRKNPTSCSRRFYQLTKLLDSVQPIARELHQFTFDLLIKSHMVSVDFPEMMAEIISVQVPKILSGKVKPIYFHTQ
Assay: Transactivative androgen agonistic activity in CHO cells transfected with hAR, MMTV and luciferase
Assay type: cell-based
Conditions: MMTV-luciferase, incubation 16 h, 37° C.
Experimental: The transactivative androgen agonistic activity of the compounds of the invention was measured in Chinese hamster ovary cells (CHO) transfected with the human androgen receptor (hAR), in combination with a mouse mammary tumor virus (MMTV), and luciferase receptor gene (incubation time 16 h, temperature 37° C.) and compared with the activity of 5α-dihydrotestosterone [according to the procedure described by Schoonen, W. G. E. J. et al., Analyt. Biochem. 261, 222-224 (1998)].

Previously resolved entries follow.
| COMPOUND | REPORTED VALUE |
| --- | --- |
| CC1CC2=CC(=O)CCC2C2CCC3(C)C(=CCC(C)C3O)C12 (stereo not drawn) | 10.2% |
| C#CC1(O)CCC=C2C3CCC4=CC(=O)CCC4C3CCC21C (stereo not drawn) | 12.3% |

Now turn to the next compound.
// field: Androgen activity: Relative agonistic activity (%) versus 5α-dihydrotestosterone; key: CCC1(O)CCC=C2C3C(C)CC4=CC(=O)CCC4C3CCC21C (stereo not drawn) ; value = 13.2%

---

Test: Oral activity
Format: in vivo
Details: found by applicant ("We have found")

| MOLECULE | Oral activity |
| --- | --- |
| CCC12CCC3C4CCC(=O)C=C4CCC3C1CCCC2O (stereo not shown) | not orally active |
| CCC12CCC3C4CCC(=O)C=C4CCC3C1CCCC2(C)O (stereo not shown) | not orally active |

Source: patent US20090291929A1
